# Tested on: SARS-CoV-1 Mpro (Severe acute respiratory syndrome coronavirus, UniProt P0C6X7)
# Measurement description: biochemical
Measurement name: IC50 (nM)

[
  {
    "Structure as smiles": "CC(C)c1ccc(F)c2[nH]c(C(=O)N3C[C@H]4[C@@H]([C@H]3C(=O)N[C@H](C=O)C[C@@H]3CCNC3=O)C4(C)C)cc12",
    "Result units": "nM",
    "Measured result": 30
  },
  {
    "Structure as smiles": "CC1(C)[C@@H]2[C@@H](C(=O)N[C@H](C#N)C[C@@H]3CCNC3=O)N(C(=O)C3(c4cccc(Cl)c4)CC3)C[C@@H]21",
    "Result units": "nM",
    "Measured result": 224
  },
  {
    "Structure as smiles": "CC1(C)[C@@H]2[C@@H](C(=O)N[C@H](C=O)C[C@@H]3CCNC3=O)N(C(=O)c3[nH]c4ccccc4c3-c3ccccc3)C[C@@H]21",
    "Result units": "nM",
    "Measured result": 234
  },
  {
    "Structure as smiles": "N#Cc1cccc2[nH]c(C(=O)N3CC4(CC4)C[C@H]3C(=O)N[C@H](C=O)C[C@@H]3CCNC3=O)cc12",
    "Result units": "nM",
    "Measured result": 60.6
  },
  {
    "Structure as smiles": "COc1cccc2cc(C(=O)N3C[C@H]4[C@@H]([C@H]3C(=O)N[C@H](C=O)C[C@@H]3CCNC3=O)C4(C)C)[nH]c12",
    "Result units": "nM",
    "Measured result": 83.3
  },
  {
    "Structure as smiles": "O=C[C@H](C[C@@H]1CCNC1=O)NC(=O)[C@@H]1CC2(CC2)CN1C(=O)c1cc2c(F)cccc2[nH]1",
    "Result units": "nM",
    "Measured result": 19.3
  },
  {
    "Structure as smiles": "COc1cc2cc(C(=O)N3C[C@H]4[C@@H]([C@H]3C(=O)N[C@H](C=O)C[C@@H]3CCNC3=O)C4(C)C)[nH]c2cc1OC",
    "Result units": "nM",
    "Measured result": 149
  },
  {
    "Structure as smiles": "CC1(C)[C@@H]2[C@@H](C(=O)N[C@H](C=O)C[C@@H]3CCNC3=O)N(C(=O)c3cc4cccc(F)c4[nH]3)C[C@@H]21",
    "Result units": "nM",
    "Measured result": 19.5
  },
  {
    "Structure as smiles": "N#Cc1ccc2cc(C(=O)N3CC4(CC4)C[C@H]3C(=O)N[C@H](C=O)C[C@@H]3CCNC3=O)[nH]c2c1",
    "Result units": "nM",
    "Measured result": 35.1
  },
  {
    "Structure as smiles": "CC1(C)[C@@H]2[C@@H](C(=O)N[C@H](C=O)C[C@@H]3CCNC3=O)N(C(=O)c3cc4c(F)cc(F)cc4[nH]3)C[C@@H]21",
    "Result units": "nM",
    "Measured result": 40.4
  },
  {
    "Structure as smiles": "O=C[C@H](C[C@@H]1CCNC1=O)NC(=O)[C@@H]1C[C@@H](C2CCCCC2)CN1C(=O)c1cc2ccccc2[nH]1",
    "Result units": "nM",
    "Measured result": 147
  },
  {
    "Structure as smiles": "CC1(C)[C@@H]2[C@@H](C(=O)N[C@H](C#N)C[C@@H]3CCNC3=O)N(C(=O)c3cc4c(F)ccc(Cl)c4[nH]3)C[C@@H]21",
    "Result units": "nM",
    "Measured result": 788
  }
]

* * *

# Tested on: SARS-CoV-2 Mpro (Severe acute respiratory syndrome coronavirus 2)
# Measurement description: SARS-CoV-2 Mpro enzymatic inhibition assay (fluorescence)
# Assay type: biochemical
Rule for this label: satisfied means IC50 is less than 20 nM; not satisfied means IC50 is at least 20 nM.

[
  {
    "Structure as smiles": "CCOc1ccc2[nH]c(C(=O)N3C[C@H]4[C@@H]([C@H]3C(=O)N[C@H](C=O)C[C@@H]3CCNC3=O)C4(C)C)cc2c1",
    "Tested on": "SARS-CoV-2 Mpro (Severe acute respiratory syndrome coronavirus 2)",
    "Group label": "not satisfied"
  },
  {
    "Structure as smiles": "CC1(C)[C@@H]2[C@@H](C(=O)N[C@H](C=O)C[C@@H]3CCNC3=O)N(C(=O)C3(c4ccccc4)CC3)C[C@@H]21",
    "Tested on": "SARS-CoV-2 Mpro (Severe acute respiratory syndrome coronavirus 2)",
    "Group label": "satisfied"
  },
  {
    "Structure as smiles": "Cn1c(C(=O)N2C[C@H]3[C@@H]([C@H]2C(=O)N[C@H](C=O)C[C@@H]2CCNC2=O)C3(C)C)cc2c(F)cccc21",
    "Tested on": "SARS-CoV-2 Mpro (Severe acute respiratory syndrome coronavirus 2)",
    "Group label": "not satisfied"
  },
  {
    "Structure as smiles": "CC1(C)[C@@H]2[C@@H](C(=O)N[C@H](C=O)C[C@@H]3CCNC3=O)N(C(=O)c3cc4c(Cl)cccc4[nH]3)C[C@@H]21",
    "Tested on": "SARS-CoV-2 Mpro (Severe acute respiratory syndrome coronavirus 2)",
    "Group label": "not satisfied"
  },
  {
    "Structure as smiles": "CC(C)Oc1cccc2[nH]c(C(=O)N3C[C@H]4[C@@H]([C@H]3C(=O)N[C@H](C=O)C[C@@H]3CCNC3=O)C4(C)C)cc12",
    "Tested on": "SARS-CoV-2 Mpro (Severe acute respiratory syndrome coronavirus 2)",
    "Group label": "not satisfied"
  },
  {
    "Structure as smiles": "CC1(C)[C@@H]2[C@@H](C(=O)N[C@H](C=O)C[C@@H]3CCNC3=O)N(C(=O)c3cc4c(Cl)cc(Cl)cc4[nH]3)C[C@@H]21",
    "Tested on": "SARS-CoV-2 Mpro (Severe acute respiratory syndrome coronavirus 2)",
    "Group label": "not satisfied"
  }
]

* * *

# Tested on: UniProt K9N7C7
# Measurement description: biochemical
# Parameters: species or system MERS-CoV
Overview of reported IC50 across a group of compounds:

[
  {
    "Structure as smiles": "O=C[C@H](C[C@@H]1CCNC1=O)NC(=O)[C@@H]1C[C@@H](F)CN1C(=O)c1cc2ccccc2[nH]1",
    "IC50 [nM]": 518
  },
  {
    "Structure as smiles": "CC1(C)[C@@H]2[C@@H](C(=O)N[C@H](C#N)C[C@@H]3CCNC3=O)N(C(=O)c3cc4c(F)ccc(Cl)c4[nH]3)C[C@@H]21",
    "IC50 [nM]": 5580
  },
  {
    "Structure as smiles": "CC1(C)[C@@H]2[C@@H](C(=O)N[C@H](C=O)C[C@@H]3CCNC3=O)N(C(=O)c3cc4c(Cl)cc(Cl)cc4[nH]3)C[C@@H]21",
    "IC50 [nM]": 395
  }
]

* * *

# Tested on: MERS Mpro (Middle East respiratory syndrome-related coronavirus, UniProt K9N7C7)
# Sequence (K9N7C7 3248-3553 limits assumed): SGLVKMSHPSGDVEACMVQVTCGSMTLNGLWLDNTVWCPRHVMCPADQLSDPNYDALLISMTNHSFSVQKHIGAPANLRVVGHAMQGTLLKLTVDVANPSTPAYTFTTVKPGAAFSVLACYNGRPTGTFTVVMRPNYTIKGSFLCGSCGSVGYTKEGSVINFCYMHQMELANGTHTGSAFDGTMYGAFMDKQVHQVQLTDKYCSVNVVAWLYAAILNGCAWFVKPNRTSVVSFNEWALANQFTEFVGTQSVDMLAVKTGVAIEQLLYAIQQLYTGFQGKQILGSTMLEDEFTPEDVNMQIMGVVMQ
# Measurement description: biochemical
# Design: species or system MERS-CoV
# Condition parameters: read-out: Mpro_MERS mean IC50; mean; 100 nM protein, 25 μM substrate; 30 min pre-incubation, 60 min at 30° C.
pIC50: −log10 of the molar value.

[
  {
    "Structure as smiles": "CC1(C)[C@@H]2[C@@H](C(=O)N[C@H](C=O)C[C@@H]3CCNC3=O)N(C(=O)CC3CCCCC3)C[C@@H]21",
    "pIC50": 6.55
  }
]

* * *

# Tested on: UniProt:P0C6X1
# Sequence (P0C6X1 2966-3267 limits assumed): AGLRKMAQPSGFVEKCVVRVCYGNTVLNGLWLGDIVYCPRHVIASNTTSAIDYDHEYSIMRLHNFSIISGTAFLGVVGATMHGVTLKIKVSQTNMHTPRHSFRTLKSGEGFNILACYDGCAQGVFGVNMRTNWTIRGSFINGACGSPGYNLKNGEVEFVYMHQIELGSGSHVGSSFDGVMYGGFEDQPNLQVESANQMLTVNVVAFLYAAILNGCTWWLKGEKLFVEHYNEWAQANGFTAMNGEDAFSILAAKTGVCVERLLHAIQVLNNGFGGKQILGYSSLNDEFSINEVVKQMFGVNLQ
# Measurement description: HCoV-229E Mpro enzymatic inhibition assay (fluorescence)
# Assay type: biochemical
pIC50: −log10 of the molar value.

[
  {
    "Structure as smiles": "COc1cc2cc(C(=O)N3C[C@H]4[C@@H]([C@H]3C(=O)N[C@H](C=O)C[C@@H]3CCNC3=O)C4(C)C)[nH]c2cc1OC",
    "pIC50": 7.25
  },
  {
    "Structure as smiles": "Cc1cccc2c1cc(C(=O)N1C[C@H]3[C@@H]([C@H]1C(=O)N[C@H](C=O)C[C@@H]1CCNC1=O)C3(C)C)n2C",
    "pIC50": 6.49
  },
  {
    "Structure as smiles": "CC1(C)[C@@H]2[C@@H](C(=O)N[C@H](C=O)C[C@@H]3CCNC3=O)N(C(=O)CC3CCC(F)(F)CC3)C[C@@H]21",
    "pIC50": 7.60
  },
  {
    "Structure as smiles": "C[C@@H](C(=O)N1C[C@H]2[C@@H]([C@H]1C(=O)N[C@H](C=O)C[C@@H]1CCNC1=O)C2(C)C)c1ccccc1",
    "pIC50": 7.34
  },
  {
    "Structure as smiles": "CC1(C)[C@@H]2[C@@H](C(=O)N[C@H](C=O)C[C@@H]3CCNC3=O)N(C(=O)c3cc4c(C#N)cccc4[nH]3)C[C@@H]21",
    "pIC50": 7.37
  },
  {
    "Structure as smiles": "O=C[C@H](C[C@@H]1CCNC1=O)NC(=O)[C@@H]1CCCN1C(=O)c1cc2ccccc2[nH]1",
    "pIC50": 6.68
  }
]
